- assay target: Recombinant human liver GK1 (GST-GK) (Homo sapiens)
- Construct: made in house; host or cells: E. coli
- assay explanation: In vitro glucokinase activity (G6PDH-coupled NADH assay)
- Format: biochemical
- reported conditions: at 30 μM test compound
measurement name: fold act. @ 30 μM (fold)

[
  {
    "compound": "COC1=CC(=O)N([C@@H](CC2CCCC2)C(=O)Nc2nc3ccccc3s2)C1 [Example 3]",
    "measurement unit": "fold",
    "test value": 1.3
  },
  {
    "compound": "Cc1nsc(NC(=O)[C@H](CC(C)C)N2CC(Oc3ccccc3Cl)=CC2=O)n1 [Example 107]",
    "measurement unit": "fold",
    "test value": 1.4
  },
  {
    "compound": "CC(C)C[C@@H](C(=O)Nc1nc(N(C)C)ns1)N1CC(Oc2ccccc2Cl)=CC1=O [Example 108]",
    "measurement unit": "fold",
    "test value": 1.4
  },
  {
    "compound": "CC(C)(O)Cn1ccc(NC(=O)C(Cc2c(Cl)cccc2Cl)N2CC(Oc3c(F)cccc3F)=CC2=O)n1 (stereo not shown) [Example 225]",
    "measurement unit": "fold",
    "test value": 1.4
  }
]

----------
- assay target: Recombinant human liver GK1 (GST-GK) (Homo sapiens, UniProt P35557)
- Construct: made in house; host or cells: E. coli
- Sequence (P35557 1-466 isoform P35557-2): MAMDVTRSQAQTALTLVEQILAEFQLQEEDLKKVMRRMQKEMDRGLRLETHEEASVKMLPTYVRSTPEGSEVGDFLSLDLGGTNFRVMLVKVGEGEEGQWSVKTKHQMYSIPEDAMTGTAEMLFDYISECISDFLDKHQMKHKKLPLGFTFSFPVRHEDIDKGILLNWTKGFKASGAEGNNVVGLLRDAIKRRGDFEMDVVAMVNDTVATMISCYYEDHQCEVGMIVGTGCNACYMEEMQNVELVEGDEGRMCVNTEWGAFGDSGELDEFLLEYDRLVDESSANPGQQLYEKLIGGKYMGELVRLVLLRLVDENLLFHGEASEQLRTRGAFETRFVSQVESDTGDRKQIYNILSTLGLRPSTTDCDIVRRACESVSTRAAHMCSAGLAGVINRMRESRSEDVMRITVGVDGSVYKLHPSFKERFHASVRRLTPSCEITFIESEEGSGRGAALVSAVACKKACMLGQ
- assay explanation: In vitro glucokinase activity (G6PDH-coupled NADH assay)
- Format: biochemical
- reported conditions: 30° C., 5 mM D-glucose, 10% DMSO
- Procedure: Glucokinase In Vitro Assay Protocol: Glucokinase (GK) was assayed by coupling the production of glucose-6-phosphate to the generation of NADH with glucose-6-phosphate dehydrogenase (G6PDH, 0.75-1 kunits/mg; Boehringer Mannheim, Indianapolis, Ind.) from Leuconostoc mesenteroides as the coupling enzyme (Scheme 2). […] After addition of enzyme, the increase in optical density (OD) at 340 nm was monitored spectrophotometrically to determine the rate of change (OD340 per min). […]
measurement name: SC1.5 (concentration of activator that produced a 50% increase in the activity of GK) (µM)

Please review the entries below; each comes with its answer.
[
  {
    "compound": "Cc1ccccc1OC1=CC(=O)N([C@@H](CC(C)C)C(=O)Nc2ccn(CC(C)(C)O)n2)C1",
    "test value": 0.252
  },
  {
    "compound": "CCOc1cccc(OC2=CC(=O)N([C@@H](CC(C)C)C(=O)Nc3ccn(C[C@@H](O)CO)n3)C2)c1",
    "test value": 0.307
  },
  {
    "compound": "CC(C)(C)CCC(C(=O)Nc1ccn(C[C@@H](O)CO)n1)N1CC(Oc2ccccc2Cl)=CC1=O (stereo partly shown)",
    "test value": 16.668
  },
  {
    "compound": "CC(C)C[C@@H](C(=O)Nc1ccn(C[C@@H](O)CO)n1)N1CC(Oc2ccccc2F)=CC1=O",
    "test value": 0.239
  },
  {
    "compound": "CCOc1ccccc1OC1=CC(=O)N([C@@H](CC(C)C)C(=O)Nc2ccn(CCO)n2)C1.Cl",
    "test value": 1.998
  }
]

a. CC[C@H](C)C[C@H](C(=O)Nc1ccn(C[C@@H](O)CO)n1)N1CC(Oc2ccccc2Cl)=CC1=O (single isomer, unassigned)
b. CC(C)C[C@@H](C(=O)Nc1ccn(CC(C)(C)O)n1)N1CC(Oc2ccccc2Cl)=CC1=O
c. COc1cccc(OC2=CC(=O)N([C@@H](CC3CCCC3)C(=O)Nc3ccn(CC(C)(C)O)n3)C2)c1Cl
d. COC1=CC(=O)N([C@@H](CC2CCCC2)C(=O)Nc2ccn(CC(C)(C)O)n2)C1
e. CC(C)C[C@@H](C(=O)Nc1ccn(C)n1)N1CC(Oc2cccc(O)c2F)=CC1=O
Challenge: Order the items by recorded SC1.5 (concentration of activator that produced a 50% increase in the activity of GK); the first position goes to the largest value. Please list the labels in the order you were asked to rank them.
Response given: a, d, e, b, c

Where do these numbers come from? They come from patent US7741327B2.
